Each recorded value in this set is attributed to patent US10358447B2.

System: HA-tagged HBeAg (HBV) in DESHAe82 cells
Assay: AlphaLisa eAg assay: HA-HBeAg level in DESHAe82 cell culture (anti-HBV / anti-cccDNA activity)
Format: cell-based
Conditions: Hepatitis B virus, 216 h, read-out: AlphaLisa_eAg EC50 (μM)
Protocol: Evaluation of anti-HBV activity of the compounds in in vitro cell culture studies was conducted using a modification of the assay system described in Cai et al., 2012, Antimicrobial Agents Chemotherapy 56(8):4277-88 and PCT/EP/2015/06838. […] The DESHAe82 cell line produces high levels of cccDNA synthesis and HA-HBeAg, and high specific readout signals with low noise. […]
experimental.endpoint: EC50 (µM)

compound: CCOC(=O)C1C(=O)N(O)C(=O)c2ccc(OC)nc21 (stereo not drawn)
target.desc: HA-tagged HBeAg (HBV) in DESHAe82 cells
units.symbol: µM
value.prefix: =
test.value: 2.4

compound: COc1ccc2c(n1)C(C(=O)NCc1ccc(Cl)cc1)C(=O)N(O)C2=O (stereo not drawn)
target.desc: HA-tagged HBeAg (HBV) in DESHAe82 cells
units.symbol: µM
value.prefix: >
test.value: 50

compound: O=C(NCc1ccc(F)cc1)C1C(=O)N(O)C(=O)c2ccc(O)nc21 (stereo not drawn)
target.desc: HA-tagged HBeAg (HBV) in DESHAe82 cells
units.symbol: µM
value.prefix: =
test.value: 3.6

compound: COc1ccc2c(n1)C(C(=O)Nc1ccc(F)cc1)C(=O)N(O)C2=O (stereo not drawn)
target.desc: HA-tagged HBeAg (HBV) in DESHAe82 cells
units.symbol: µM
value.prefix: =
test.value: 9.6

compound: COc1ccc2c(n1)C(C(=O)Nc1ccc(Cl)cc1)C(=O)N(O)C2=O (stereo not drawn)
target.desc: HA-tagged HBeAg (HBV) in DESHAe82 cells
units.symbol: µM
value.prefix: =
test.value: 9.6

compound: CCN(CC)C(=O)C1C(=O)N(O)C(=O)c2ccc(OC)nc21 (stereo not drawn)
target.desc: HA-tagged HBeAg (HBV) in DESHAe82 cells
units.symbol: µM
value.prefix: =
test.value: 1.5
